# credit: patent US20250353873A1

System: human APOE RNA
TEST_SUMMARY: Dose-dependent inhibition of human APOE RNA in HepG2 cells, electroporation, 50,000 cells per well, RT-PCR normalized to GAPDH (Example 4, Tables 8-10)
Type: cell-based
CONDITION_NOTES: 13 nM; HepG2, electroporation, 16-hour treatment
Strand notation (5' to 3'): a small letter for the sugar, then the base; units joined by * are phosphorothioate-linked, units joined directly phosphodiester-linked; [ ] holds rarer units or linkages, { } end groups; capitals alone tell only the bases. [ms] = mesyl phosphoramidate linkage; e = 2'-O-(2-methoxyethyl) (MOE); k = constrained ethyl (cEt); [5mC] = 5-methylcytosine; d = 2'-deoxy (DNA)
Each entry below carries its recorded APOE RNA (% UTC).
Record the value in % UTC, omitting the unit from your answer.

# count of solved cases: 5
SUBSTANCE	TESTED_ON	UNIT_TAG	APOE RNA (% UTC)
1757586 (eT*eTeGeGkT*dG*dA*dA*dT*d[5mC]*dT*dT*dT*dA*dT*kTkAeA*eA*e[5mC]; antisense) [Compound 1757586]	human APOE RNA	% UTC	246
1757554: mixed MOE/cEt gapmer TTGGTGAATCTTTATTAA, sugar kkeeeddddddddeeeee, linkages soossssssssssooss (kT*kTeGeG*eT*dG*dA*dA*dT*d[5mC]*dT*dT*dT*eAeTeT*eA*eA) [compound 1757554]	human APOE RNA	% UTC	113
1757561: mixed MOE/cEt gapmer TTGGTGAATCTTTATTAA, sugar eeekkddddddddkeeee, linkages soossssssssssooss (eT*eTeGkG*kT*dG*dA*dA*dT*d[5mC]*dT*dT*dT*kAeTeT*eA*eA) [compound 1757561]	human APOE RNA	% UTC	191
1757544: mixed MOE/cEt gapmer TTGGTGAATCTTTATTAA, sugar ekeeeddddddddeeeee, linkages soossssssssssooss (eT*kTeGeG*eT*dG*dA*dA*dT*d[5mC]*dT*dT*dT*eAeTeT*eA*eA) [compound 1757544]	human APOE RNA	% UTC	86
1757562: mixed MOE/cEt gapmer TTGGTGAATCTTTATTAA, sugar eeeekddddddddkkeee, linkages soossssssssssooss (eT*eTeGeG*kT*dG*dA*dA*dT*d[5mC]*dT*dT*dT*kAkTeT*eA*eA) [compound 1757562]	human APOE RNA	% UTC	86

The substance 1757572 (eA*e[5mC]eTeT*kG*kG*dT*dG[ms]dA[ms]dA[ms]dT*d[5mC]*dT*dT*dT*dA[ms]eT*eT*eA*eA; antisense) [Compound 1757572] showed APOE RNA (% UTC) equal to 95

The substance 1757575 (eA*e[5mC]eTeT*kG*kG*dT*dG[ms]dA[ms]dA[ms]dT*d[5mC]*dT*dT*dT*dA[ms]kT*eT*eA*eA; antisense) [Compound 1757575] showed APOE RNA (% UTC) equal to 80

The substance 1757568 (eA*e[5mC]eTeTeG*dG*dT*dG*dA*dA*dT*d[5mC]*dT*dT*dT*kAkTeT*eA*eA; antisense) [Compound 1757568] showed APOE RNA (% UTC) equal to 87

The substance 1757565 (eA*e[5mC]eTeTkG*dG*dT*dG*dA*dA*dT*d[5mC]*dT*dT*dT*eAeTeT*eA*eA; antisense) [Compound 1757565] showed APOE RNA (% UTC) equal to 108

The substance 1757557: mixed MOE/cEt gapmer TTGGTGAATCTTTATTAA, sugar eeeeeddddddddeekke, linkages soossssssssssooss (eT*eTeGeG*eT*dG*dA*dA*dT*d[5mC]*dT*dT*dT*eAeTkT*kA*eA) [compound 1757557] showed APOE RNA (% UTC) equal to 88
